# testDescription: recombinant UMI read abundance after kanamycin selection (control-corrected) (log10(CPM+1)); higher = more efficient recombination; extreme values may be limits of the assay; sequences stand for … in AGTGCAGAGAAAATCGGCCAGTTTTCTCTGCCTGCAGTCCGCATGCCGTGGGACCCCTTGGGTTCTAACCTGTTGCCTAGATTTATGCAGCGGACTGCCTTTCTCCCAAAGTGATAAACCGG…AGGTTGGTTTCACT; site = the 11-nt donor;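 note: IS621 bridge recombinase in Escherichia coli cells against a fixed T5 target plasmid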
I'd be grateful if you could share measured recombinant UMI read abundance (log10) for these entries.
Numbers only.

Solved cases (3 shown):
{"columns": ["entrySequence", "recombinant UMI read abundance (log10)"],
 "data": [
  ["CTCGAAACATGGACCGGTTTTCCCGGTAATCCGTATTTGTG (site CTCGAAACTCA)", 1.06],
  ["GTCGTCGCATGGACCGGTTTTCCCGGTAATCCGTATTTGCG (site GTCGTCGCTCG)", 0.512],
  ["AGGCTCCCATGGACCGGTTTTCCCGGTAATCCGTATTTGTG (site AGGCTCCCTCA)", 0.0267]
]}

Please turn your attention to the following entry.
Please look up its recombinant UMI read abundance (log10): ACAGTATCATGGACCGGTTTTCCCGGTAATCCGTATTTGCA (site GCAGTAACTTG)
0
